Could you please report measured SubG1 (percentage of cells in phase of the cell cycle) for the items listed next?
system: BJ, B16-F10, T47D, T47Dp53 and HeLa cells; experiment: Cell cycle assay (propidium iodide flow cytometry), cell line panel; assay type: cell-based; details: 150 nM oligomeric compound, 4.5 μg/ml LIPOFECTIN, after 72 hours, propidium iodide flow cytometry
In the oligonucleotide strings, read from the 5' end, every base follows the letter of its sugar. An asterisk marks phosphorothioate; unmarked linkages are phosphodiester. Other units and linkages are bracketed, terminal groups are in braces. A string of capitals states the bases alone. e = 2'-O-(2-methoxyethyl) (MOE); [5mC] = 5-methylcytosine
Numbers only, in %.

SUBSTANCE	TEST RESULT
327919 (antisense eG*eA*eA*eA*e[5mC]*e[5mC]*e[5mC]*eA*eG*e[5mC]*eA*eG*eA*e[5mC]*eA*eA*eT*eG*eT*eA*eG*e[5mC]*eT) [compound 327919]	10.8
327903 (antisense eA*eA*e[5mC]*eT*eA*eT*eA*e[5mC]*eA*eA*e[5mC]*e[5mC]*eT*eA*e[5mC]*eT*eA*e[5mC]*e[5mC]*eT*e[5mC]*eA) [compound 327903]	11

Turning to the following substance.
Task item: Entry under review: 327928 (antisense eA*eA*e[5mC]*e[5mC]*eG*eA*eT*eT*eT*e[5mC]*eA*eG*eA*eT*eG*eG*eT*eG*e[5mC]*eT*eA*eG) [compound 327928] . Reported SubG1 (percentage of cells in phase of the cell cycle)?
Reply: 6.6
